# Test system: TNNI3K
# DETAILS: concentration: 1 μM, replicates: in singlicate; n = 1;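 note: KINOMEscan kinase panel screen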
Listing: %Inh of selected compounds
Only the number, expressed in %, is required.

Field: example entries. Status: answers known.
Record COc1cc(Nc2nccc(N3CCC(NC(=O)c4cc5ccccc5s4)C3)n2)cc(OC)c1OC (stereo not shown) / TNNI3K, %Inh recorded as 0

Form field %Inh for item COC(=O)Nc1nc2ccc(Oc3ccc(NC(=O)Nc4cc(C(F)(F)F)ccc4F)cc3)cc2n1C.Cl on TNNI3K: 72

So the reported %Inh for FC(F)(F)c1ccc(/C=C/c2cncnc2Nc2ccc3[nH]c(Cc4ccccc4)nc3c2)cc1 , on TNNI3K, turned out to be 0

Entry O=c1[nH]cc(-c2ccc(N3CCOCC3)cc2)c2sc(-c3cn[nH]c3)cc12 , TNNI3K data, %Inh value: 0

Bench note, TNNI3K: entry Fc1ccc(-c2ncn(C3CCNCC3)c2-c2ccnc(Oc3ccc(-c4ccccc4)cc3)n2)cc1 , its %Inh = 42

// assay TNNI3K, entry O=C(Nc1cccc(-c2nn3ncccc3c2-c2ccnc(Nc3ccccc3)n2)c1)c1c(F)cccc1F , %Inh value = 36

Item: Nc1n[nH]c2cnc(-c3ccccc3)cc12 | System: TNNI3K | %Inh: 0

I looked up COc1cccc(NC(=O)NC2CCN(c3ccnc(Nc4cc(OC)c(OC)c(OC)c4)n3)C2)c1 (stereo not shown) and its %Inh for TNNI3K was 0

Continuing:
Recorded %Inh for Cn1cc(-c2ccc3c(c2)CCN3C(=O)Cc2cccc(Cl)c2)c2c(N)ncnc21 on TNNI3K was 0

Case CSc1cccc2c(-c3ccncn3)c(-c3ccc(F)cc3)nn12 , TNNI3K, %Inh recorded as 6

====

# System: SIK2
# DETAILS: concentration: 1 μM, replicates: in singlicate; n = 1
RECORDED_METRIC: %Inh (%)
Kindly provide the numeric value in % only, without the unit symbol.

Please review the following examples before continuing.
Looking up Oc1cc(Nc2ccnc3cc(I)ccc23)ccc1F [GW552771] , I see its %Inh listed as 57

CC(C)(C)c1ccc2nccc(Nc3cccc(O)c3)c2c1 [GW856795] has a reported %Inh of 0

response.value for C[C@@H]1CC[C@@H](C(=O)Nc2ccccc2)CN1c1cc(-c2ccc3c(N)n[nH]c3c2)nc(N)n1 [GSK2286062] (field: %Inh) = 0

# %Inh (molecule: COCCOCCOc1cc2ncc3c4ccc(C#N)cc4[nH]c3c2cc1OC ) is 83

Continuing:
# %Inh (molecule: Fc1ccc(-c2ncn(C3CCNCC3)c2-c2ccnc(Oc3ccc(-c4ccccc4)cc3)n2)cc1 [SB-245391] ) is 4

====

# System: LATS2
# DETAILS: concentration: 1 μM, replicates: in singlicate; n = 1
Collected %Inh values appear next to each entry.
Please state the figure in %; there is no need to write the unit.

Just so you know, measured %Inh for c1ccc(-c2cnc3nccnn23)cc1 came out at 0

%Inh measured on Cn1cc(-c2[nH]c3cc(NC(=O)[C@H](N)C4CCCCC4)cc4c3c2C=NNC4=O)cn1 = 100

Looking up COc1cc(Nc2nccc(N3CCC(NC(=O)Nc4cccc(C(C)=O)c4)C3)n2)cc(OC)c1OC (centres unmarked) , I found its %Inh recorded as 0

New cases:
Entry under test: Cl.Cl.NCC(C(=O)Nc1cc(Br)c(-c2ccnc3[nH]ccc23)s1)c1ccccc1 (centres unmarked) . Its %Inh was 80

For reference, reported %Inh for Fc1ccc(-c2ncn(C3CCNCC3)c2-c2ccnc(Oc3ccc(-c4ccccc4)cc3)n2)cc1 stands at 21

# credit: paper PMC5540273
